Test: hESC survival regulators, cell-based (AID 493140);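 further: cells exposed to compounds for four days before counting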
Details: human embryonic stem cell survival screen; stronger effect = higher value
measurement_kind: survival

compound="CCCCCC[C@H]1C(=O)O[C@H](C)C(NC(=O)c2cccc(NC=O)c2O)C(=O)O[C@@H](C)[C@@H]1OC(=O)CC(C)C (some centres undefined)" measurement_kind=survival numeric_result=38.8
compound="O=c1ccc2cc(O[C@@H]3OC(CO)[C@@H](O)[C@@H](O)C3O)c(O)cc2o1 (some centres undefined)" measurement_kind=survival numeric_result=4.42
compound=NCCc1c[nH]c2ccc(O)cc12 measurement_kind=survival numeric_result=12.7
compound="CCC1(c2cccc(O)c2)CCCCN(C)C1 (centres undefined)" measurement_kind=survival numeric_result=2.75
compound=CCCCC/C=C\C/C=C\CCCCCCCC(=O)NCCO measurement_kind=survival numeric_result=162
compound="CC1(C(=O)O)C2CCC(O2)C1(C)C(=O)O (centres undefined)" measurement_kind=survival numeric_result=0.417
compound=CCCCC/C=C\C/C=C\C/C=C\CCCCCCC(=O)NCCO measurement_kind=survival numeric_result=87.2
compound=N#CC(C#N)=Cc1ccc([N+](=O)[O-])c(O)c1 measurement_kind=survival numeric_result=124
compound="CCCCCC1OC1C/C=C\\CCCCCCCC(=O)O (centres undefined)" measurement_kind=survival numeric_result=100

The measurements presented in this section are drawn from PubChem BioAssay.
